experimentSummary: qHTS assay to identify small molecule antagonists of the constitutive androstane receptor (CAR) signaling pathway - cell viability counter screen (AID 1224837); further: nearly all actives have a fitted effect of over 45% in size
measurementContext: HepG2-CYP2B6-hCAR viability, CellTiter-Fluor, 23 h, co-treated with 50 nM CITCO; series mostly up to 92.4 µM
Results filed as inconclusive are left out. Calls of active or inactive are those of the source. The call rests on the fitted dose curve; in most records, active means well fitted cell-killing curve with a large enough effect in the repeat runs; inconclusive means weak or mixed curves, or effect the other way; inactive means flat fitted curve, though single readings scatter.
Would you mind answering with one of these outcomes? active, inactive

Which result was noted for this molecule in the test: O=C(Nc1ccc2c(O)c(N=Nc3ccc(N=Nc4ccc(S(=O)(=O)O)cc4)cc3)c(S(=O)(=O)O)cc2c1)c1ccccc1
active

Lab log entry: O=C(O)c1cc(O)c2ccccc2c1O — outcome as called in the assay?
active

How did this test come out for CCC(CC)(CC(=O)Nc1cccc(/C=C/c2nc(C3CCC3)cs2)c1)C(=O)O ?
inactive
